Target: T1, human CD4, cell-expressed (human, UniProt P01730 26-458)
T1 construct: whole, on cells
Experiment: flow cytometry on MOLM-13 cells (CD4, no IL12R or IL23R), lower left panel
REPORTED PROPERTY: EC50 (read off the curve)

Retrieve EC50 (read off the curve) measured for IL12Rb1#30-35GS-CD4#8 (bispecific antibody, also called BI#46; T023200046) EVQLVESGGGLVQTGGSLRLSCAASGRTPRLVAMGWFRQTPGKEREFVGEIILSKGFTYYADSVKGRFTISRVNAKNTITMYLQMNSLKSEDTAVYYCAGRQNWSGSPARTNEYEYWGQGTLVTVSSGGGGSGGGGSGGGGSGGGGSGGGGSGGGGSGGGGSEVQLVESGGGSVQPGGSLTLSCGTSGRTFNVMGWFRQAPGKEREFVAAVRWSSTGIYYTQYADSVKSRFTISRDNAKNTVYLEMNSLKPEDTAVYYCAADTYNSNPARWDGYDFRGQGTLVTVSS and print it.
~1 nM
